- Tested on: E. coli strain W3110
- protocol-notes: Synergy assays: Biolog chemical sensitivity panels with Group IB metal, coefficient of drug interaction (CDI) from relative growth
- Assay type: cell-based
- study-conditions: Gold (μM), first of 3 gold concentrations; biocide concentration 3 of 4
observation-type: CDI (coefficient of drug interaction), gold + biocide

> print(dat)
                                   molecule  readout.value
1  c1ccc(-c2nn(-c3ccccc3)[n+](-c3cccc4ccccc34)n2)cc1 [Tetrazolium violet]            Tox
2  O=[N+]([O-])c1ccc(O)c([N+](=O)[O-])c1 [2,4-dintrophenol]           1.27
3  CSCCC(N)C(=O)NO (racemic) [D,L-methionine hydroxamate]           1.06

Reference source: patent US11382328B2
